Values were extracted from paper PMC11944986.

assay: Solubility of GL-II-73 in various media, shake flask method; assay type: physicochemical; settings: aqueous buffer, thermodynamic from solid; Phosphate buffer (pH 7.4)
quantityMeasured: solubility (µg/mL)
Numbers only, in µg/mL.

Exam item: Form field: reported solubility of C#Cc1ccc2c(c1)C(c1ccccc1F)=N[C@H](C)c1c(C(=O)N(C)C)ncn1-2
Marked response: 951

* * *

assay: Solubility of GL-II-73 in various media, shake flask method; assay type: physicochemical; conditions: soybean oil, oil or lipid, thermodynamic from solid
quantityMeasured: solubility (µg/mL)
Answers are plain numbers, in µg/mL.

Exam item: Form field: reported solubility of C#Cc1ccc2c(c1)C(c1ccccc1F)=N[C@H](C)c1c(C(=O)N(C)C)ncn1-2 [GL-II-73]
Marked response: 3060
